# assay-overview: Toxicity index, ratio of IC50 for toxicity in CHO cells to concentration of test compound causing at least 8 times decrease of MIC of almost 3 antibiotics (chloramphenicol/nalidixic acid/doxycycline/erythromycin ) against Enterobacter aerogenes Ea289
# Format: cell-based
# settings: hamster, pooled result: one value given for 2 cell lines, strains, targets or settings
// boundary case: selectivity ratio equal to 2 maps to Criterion not met; strictly smaller maps to Criterion met

mol-smiles	assigned-class
CC(C)=CCC/C(C)=C\CCC(C)=CCNCCNCCNCCNCCN	Criterion not met
CC(C)=CCCC(C)=CCNCCCN(CCCN)CCCN	Criterion not met
CC(C)=CCC/C(C)=C\CCC(C)=CCNCCCN(CCCN)CCCN	Criterion not met
CC(C)=CCC/C(C)=C\CCC(C)=CCNCCCN(C)CCCN	Criterion met

Now look at this entry.
Query string: In the record for CC(C)=CCCC(C)=CCNCCNCCNCCNCCNCCN , is selectivity ratio less than 2?
Result string: Criterion met
